Origin of measurements: patent US12221448B2

Biological target: PI3Kα (Homo sapiens, UniProt P42336)
Construct: purchased Invitrogen (US)
Sequence (P42336 whole entry): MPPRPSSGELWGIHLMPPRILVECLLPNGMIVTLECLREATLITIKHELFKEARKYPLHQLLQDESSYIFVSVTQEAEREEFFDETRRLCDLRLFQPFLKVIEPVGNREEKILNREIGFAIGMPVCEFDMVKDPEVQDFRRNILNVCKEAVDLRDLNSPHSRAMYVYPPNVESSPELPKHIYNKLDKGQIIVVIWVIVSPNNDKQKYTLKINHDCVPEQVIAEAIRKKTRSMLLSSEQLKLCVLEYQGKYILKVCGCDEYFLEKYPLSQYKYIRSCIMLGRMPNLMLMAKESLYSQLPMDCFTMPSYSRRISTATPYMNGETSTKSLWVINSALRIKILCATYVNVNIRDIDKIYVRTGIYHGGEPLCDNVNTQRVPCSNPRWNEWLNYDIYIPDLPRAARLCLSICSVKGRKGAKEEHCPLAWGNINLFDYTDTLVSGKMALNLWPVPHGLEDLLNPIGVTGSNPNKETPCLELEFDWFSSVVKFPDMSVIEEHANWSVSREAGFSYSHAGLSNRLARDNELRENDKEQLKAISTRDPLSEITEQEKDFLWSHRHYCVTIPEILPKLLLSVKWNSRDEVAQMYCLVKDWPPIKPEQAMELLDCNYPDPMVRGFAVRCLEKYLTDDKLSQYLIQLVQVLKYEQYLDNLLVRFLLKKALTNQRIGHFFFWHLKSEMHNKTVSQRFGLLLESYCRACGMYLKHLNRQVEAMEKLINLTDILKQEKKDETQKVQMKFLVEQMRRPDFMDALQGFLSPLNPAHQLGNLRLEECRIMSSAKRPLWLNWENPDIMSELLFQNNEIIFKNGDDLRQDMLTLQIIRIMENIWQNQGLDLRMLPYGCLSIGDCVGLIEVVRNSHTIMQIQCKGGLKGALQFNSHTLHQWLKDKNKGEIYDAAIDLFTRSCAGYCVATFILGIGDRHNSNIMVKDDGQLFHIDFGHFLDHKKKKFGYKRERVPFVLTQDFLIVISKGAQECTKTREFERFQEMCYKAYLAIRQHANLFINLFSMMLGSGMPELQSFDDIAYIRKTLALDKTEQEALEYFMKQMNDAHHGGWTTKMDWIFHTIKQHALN
Sequence (P27986 whole entry partner): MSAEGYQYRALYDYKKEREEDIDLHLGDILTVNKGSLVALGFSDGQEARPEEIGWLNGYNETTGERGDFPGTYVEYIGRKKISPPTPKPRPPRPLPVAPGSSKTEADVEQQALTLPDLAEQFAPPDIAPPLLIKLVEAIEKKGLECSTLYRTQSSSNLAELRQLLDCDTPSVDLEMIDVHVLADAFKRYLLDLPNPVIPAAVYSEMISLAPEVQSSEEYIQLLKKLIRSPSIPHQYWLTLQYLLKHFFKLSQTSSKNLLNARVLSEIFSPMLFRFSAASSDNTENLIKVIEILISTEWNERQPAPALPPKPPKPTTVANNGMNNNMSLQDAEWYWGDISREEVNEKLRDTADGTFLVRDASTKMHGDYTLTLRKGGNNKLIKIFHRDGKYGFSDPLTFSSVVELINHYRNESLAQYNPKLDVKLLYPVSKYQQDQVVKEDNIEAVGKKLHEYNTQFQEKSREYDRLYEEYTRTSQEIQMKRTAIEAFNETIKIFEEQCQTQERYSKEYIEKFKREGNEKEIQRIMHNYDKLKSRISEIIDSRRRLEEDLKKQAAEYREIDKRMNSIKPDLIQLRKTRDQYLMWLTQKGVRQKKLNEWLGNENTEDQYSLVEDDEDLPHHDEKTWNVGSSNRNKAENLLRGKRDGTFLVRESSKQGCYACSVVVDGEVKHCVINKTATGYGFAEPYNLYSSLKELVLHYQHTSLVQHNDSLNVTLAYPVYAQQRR
Test: In vitro enzyme activity (ADP-Glo) against PI3Kα
Format: biochemical
Settings: Table 2; ATP 10 μM, PIP2:PS 50 μM
Kindly supply the reported IC50 values for the records listed here.
Only the number, expressed in µM, is required.

Incoming: Quick check: IC50 of COc1ccc(-c2nn(C(C)c3nc4cccc(F)c4c(=O)n3C3CCCC3)c3ncnc(N)c23)cc1F (stereo not shown) ?
Outgoing: 5.52

Incoming: Name the recorded IC50 for COc1ccc(-c2nn(C(C)c3nc4cccc(F)c4c(=O)n3C3CCC3)c3ncnc(N)c23)cc1OC (stereo not shown) .
Outgoing: 1.1

Incoming: Bench note: what IC50 did COc1ccc(-c2nn(Cc3nc4cccc(F)c4c(=O)n3C3CC3)c3ncnc(N)c23)cc1F show?
Outgoing: 1.69

Incoming: Look up IC50: CCC(c1nc2ccc(F)cc2c(=O)n1C1CC1)n1nc(-c2ccc(OC)c(F)c2)c2c(N)ncnc21 (stereo not shown)
Outgoing: 6.44

---

Molecular target: PI3Kγ (Homo sapiens)
Construct: purchased Invitrogen (US)
Experiment: In vitro enzyme activity (ADP-Glo) against PI3Kγ
Type: biochemical
Details: Table 3; ATP 50 μM, PIP2:PS 50 μM; read-out: IC50 PIK3γ
reported-endpoint: IC50 (µM)
# value in µM; strip the unit string

Incoming: Which IC50 is reported for this molecule? CC(C)Oc1ccc(-c2nn([C@@H](C)c3oc4ccc(F)cc4c(=O)c3-c3cccc(F)c3)c3ncnc(N)c23)cc1F [TGR1202, reference compound]
Outgoing: 0.362

---

Target: PI3Kδ (Homo sapiens)
Construct: purchased Invitrogen (US)
Sequence (O00329 whole entry, one chain of several): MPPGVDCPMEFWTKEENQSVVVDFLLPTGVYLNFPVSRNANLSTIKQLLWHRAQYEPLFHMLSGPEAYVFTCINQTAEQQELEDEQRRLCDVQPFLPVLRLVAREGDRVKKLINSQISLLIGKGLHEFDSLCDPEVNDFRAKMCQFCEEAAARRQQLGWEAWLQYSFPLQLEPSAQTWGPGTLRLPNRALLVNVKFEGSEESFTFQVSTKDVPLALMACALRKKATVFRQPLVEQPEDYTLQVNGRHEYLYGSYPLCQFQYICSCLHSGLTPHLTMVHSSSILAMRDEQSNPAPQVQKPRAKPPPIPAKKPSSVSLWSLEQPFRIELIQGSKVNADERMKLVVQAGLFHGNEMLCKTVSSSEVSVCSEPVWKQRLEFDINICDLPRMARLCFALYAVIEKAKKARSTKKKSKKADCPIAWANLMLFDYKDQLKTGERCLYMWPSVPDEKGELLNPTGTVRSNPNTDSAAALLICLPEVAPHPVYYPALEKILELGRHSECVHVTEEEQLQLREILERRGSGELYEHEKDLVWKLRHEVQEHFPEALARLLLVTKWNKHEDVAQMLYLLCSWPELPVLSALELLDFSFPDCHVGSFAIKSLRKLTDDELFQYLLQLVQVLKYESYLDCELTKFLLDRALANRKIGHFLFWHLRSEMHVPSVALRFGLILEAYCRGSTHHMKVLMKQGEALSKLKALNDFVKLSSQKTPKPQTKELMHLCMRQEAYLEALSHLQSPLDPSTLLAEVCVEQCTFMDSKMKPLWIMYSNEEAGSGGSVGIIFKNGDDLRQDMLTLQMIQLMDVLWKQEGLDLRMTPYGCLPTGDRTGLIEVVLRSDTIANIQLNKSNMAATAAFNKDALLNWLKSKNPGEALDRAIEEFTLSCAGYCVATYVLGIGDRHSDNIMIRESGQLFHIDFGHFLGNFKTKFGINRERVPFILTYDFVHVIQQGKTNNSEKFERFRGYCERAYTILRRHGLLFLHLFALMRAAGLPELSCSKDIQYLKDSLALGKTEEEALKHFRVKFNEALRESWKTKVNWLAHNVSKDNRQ
Test: In vitro enzyme activity (ADP-Glo) against PI3Kδ
Format: biochemical
Conditions: Table 2; ATP 50 μM, PIP2:PS 50 μM
Please respond with reported IC50 for every item in the list.
Please reply with the bare figure in µM and do not write the unit itself.

Incoming: What does the data say about its IC50? Entry: CCC(c1nc2cccc(F)c2c(=O)n1C1CC1)n1nc(-c2ccc(OC)c(F)c2)c2c(N)ncnc21 (stereo not drawn) [Compound 9]
Outgoing: 0.0173

Incoming: Form field: reported IC50 of COc1ccc(-c2nn(C(C)c3nc4cccc(F)c4c(=O)n3C3CCCC3)c3ncnc(N)c23)cc1C (stereo not drawn) [Compound 36]
Outgoing: 0.0162

Incoming: Name the recorded IC50 for Cc1ccc(-c2nn(C(C)c3nc4cccc(F)c4c(=O)n3C3CCCC3)c3ncnc(N)c23)cc1F (stereo not drawn) [Compound 25] .
Outgoing: 0.0175

Incoming: Fill in the blank: the reported IC50 of COc1ccc(-c2nn(Cc3nc4cccc(F)c4c(=O)n3C3CC3)c3ncnc(N)c23)cc1F [Compound 6] is ____.
Outgoing: 0.031

Incoming: Which measured IC50 value corresponds to CC(c1nc2cccc(F)c2c(=O)n1C1CCCC1)n1nc(-c2ccc3c(c2)OCO3)c2c(N)ncnc21 (stereo not drawn) [Compound 46] ?
Outgoing: 0.0347

Incoming: Please report the recorded IC50 for CCC(c1nc2cccc(F)c2c(=O)n1C1CC1)n1nc(-c2ccc(OC)nc2)c2c(N)ncnc21 (stereo not drawn) [Compound 50] .
Outgoing: 0.0485

Incoming: // returns reported IC50 for input COc1ccc(-c2nn(Cc3nc4cccc(F)c4c(=O)n3C3CCC3)c3ncnc(N)c23)cc1F [Compound 7]
Outgoing: 0.0999

Incoming: Entry under review: COc1ccc(-c2nn(C(C)c3nc4ccccc4c(=O)n3C3CC3)c3ncnc(N)c23)cc1 (stereo not drawn) [Compound 45] . Reported IC50?
Outgoing: 0.0272

Incoming: Bench note: what IC50 did COc1ccc(-c2nn(C(C)c3nc4ccccc4c(=O)n3C3CC3)c3ncnc(N)c23)cc1F (stereo not drawn) [Compound 10] show?
Outgoing: 0.0064

Incoming: Fill blank: measured IC50 of the molecule CCC(c1nc2cccc(F)c2c(=O)n1C1CC1)n1nc(-c2ccc(OC)cc2)c2c(N)ncnc21 (stereo not drawn) [Compound 40] is ____.
Outgoing: 0.0289

Incoming: I would be grateful if you could share the reported IC50 for CC(C)c1ccc(-c2nn(C(C)c3nc4cccc(F)c4c(=O)n3C3CCCC3)c3ncnc(N)c23)cc1 (stereo not drawn) [Compound 24] .
Outgoing: 0.0215

Incoming: Quick check: IC50 of COc1ccc(-c2nn(C(C)c3nc4ccccc4c(=O)n3C3CC3)c3ncnc(N)c23)cc1C (stereo not drawn) [Compound 44] ?
Outgoing: 0.0398

Incoming: For CC(=O)Nc1ccc(-c2nn(C(C)c3nc4cccc(F)c4c(=O)n3C3CCC3)c3ncnc(N)c23)cc1 (stereo not drawn) [Compound 53] , what is its reported IC50?
Outgoing: 0.0438

Incoming: What does the data say about its IC50? Entry: CC(C)c1ccc(-c2nn(C(C)c3nc4cccc(F)c4c(=O)n3C3CCC3)c3ncnc(N)c23)cc1 (stereo not drawn) [Compound 28]
Outgoing: 0.0833

Incoming: Request the reported IC50 associated with COc1ccc(-c2nn(C(C)c3nc4ccccc4c(=O)n3C3CCC3)c3ncnc(N)c23)cc1C (stereo not drawn) [Compound 39]
Outgoing: 0.0235

---

For each record, write down the corresponding IC50.
Target: PI3Kγ (Homo sapiens, UniProt P48736)
Construct: purchased Invitrogen (US)
Sequence (P48736 whole entry): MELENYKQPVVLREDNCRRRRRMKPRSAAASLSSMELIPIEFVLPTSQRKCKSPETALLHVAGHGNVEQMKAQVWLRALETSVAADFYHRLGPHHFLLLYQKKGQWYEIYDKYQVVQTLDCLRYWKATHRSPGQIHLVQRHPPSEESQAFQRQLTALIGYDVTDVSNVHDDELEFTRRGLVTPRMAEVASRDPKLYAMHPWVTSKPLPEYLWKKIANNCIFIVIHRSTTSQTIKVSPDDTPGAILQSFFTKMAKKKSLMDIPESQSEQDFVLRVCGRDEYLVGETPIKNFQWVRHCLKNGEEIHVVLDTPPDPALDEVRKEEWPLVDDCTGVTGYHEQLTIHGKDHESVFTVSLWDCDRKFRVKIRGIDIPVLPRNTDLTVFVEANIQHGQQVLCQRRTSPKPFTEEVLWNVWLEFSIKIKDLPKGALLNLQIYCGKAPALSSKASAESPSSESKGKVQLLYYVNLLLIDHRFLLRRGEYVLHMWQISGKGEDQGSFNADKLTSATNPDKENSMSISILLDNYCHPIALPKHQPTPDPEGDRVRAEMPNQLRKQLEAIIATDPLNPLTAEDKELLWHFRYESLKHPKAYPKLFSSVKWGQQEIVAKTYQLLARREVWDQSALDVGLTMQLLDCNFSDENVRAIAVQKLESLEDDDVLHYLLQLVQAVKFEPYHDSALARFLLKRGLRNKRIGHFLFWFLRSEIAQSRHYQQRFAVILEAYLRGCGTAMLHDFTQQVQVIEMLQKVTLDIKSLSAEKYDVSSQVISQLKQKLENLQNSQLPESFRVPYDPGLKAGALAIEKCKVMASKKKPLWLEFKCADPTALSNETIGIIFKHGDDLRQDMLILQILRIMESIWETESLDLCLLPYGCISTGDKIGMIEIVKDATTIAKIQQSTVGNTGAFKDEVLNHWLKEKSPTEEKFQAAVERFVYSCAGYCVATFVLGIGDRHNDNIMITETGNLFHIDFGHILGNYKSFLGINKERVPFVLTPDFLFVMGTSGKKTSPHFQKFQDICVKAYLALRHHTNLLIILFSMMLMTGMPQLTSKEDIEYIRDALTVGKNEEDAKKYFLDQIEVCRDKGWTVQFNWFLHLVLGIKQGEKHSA
Experiment: In vitro enzyme activity (ADP-Glo) against PI3Kγ
Format: biochemical
Details: Table 2; ATP 50 μM, PIP2:PS 50 μM; read-out: IC50 against PI3Kγ
Procedure: In vitro enzyme activity experiments were performed to determine the IC50 values of the compounds against PI3K family type I kinases (PI3Kα, PI3Kβ, PI3Kγ, PI3Kδ) and type II kinases (PIK3C2A, PIK3C2B). Protein kinases PI3Kα, PI3Kγ, PI3Kδ, PIK3C2A, and PIK3C2B were all purchased from Invitrogen (US); protein kinase PI3Kβ was purchased from sigma (US); the three substrates PIP2: PS, PI and PI: PS were purchased from Invitrogen (US). […]
Lab book: enter the figure in µM, no units written.

Incoming: Name the recorded IC50 for CCC(c1nc2ccc(F)cc2c(=O)n1C1CC1)n1nc(-c2ccc(OC)c(F)c2)c2c(N)ncnc21 (stereo not shown) [Compound 23] .
Outgoing: 0.922

Incoming: // lookup IC50 for COc1ccc(-c2nn(C(C)c3nc4cccc(F)c4c(=O)n3C3CCC3)c3ncnc(N)c23)cc1F (stereo not shown) [Compound 1]
Outgoing: 4.09

Incoming: Give the measured IC50 of COc1ccc(-c2nn(C(C)c3nc4cccc(F)c4c(=O)n3C3CCC3)c3ncnc(N)c23)cc1 (stereo not shown) [Compound 19] .
Outgoing: 0.689

Incoming: Dear colleague, I am looking for the recorded IC50 of the following compound: COc1ccc(-c2nn(C(C)c3nc4ccccc4c(=O)n3C3CC3)c3ncnc(N)c23)cc1F (stereo not shown) [Compound 10]
Outgoing: 0.103

Incoming: Recorded IC50 of CCC(c1nc2ccccc2c(=O)n1C1CC1)n1nc(-c2ccc(OC)c(F)c2)c2c(N)ncnc21 (stereo not shown) [Compound 11] , please.
Outgoing: 0.389

Incoming: Sample COc1ccc(-c2nn(C(C)c3nc4ccc(F)cc4c(=O)n3C3CC3)c3ncnc(N)c23)cc1F (stereo not shown) [Compound 22] — what was its IC50?
Outgoing: 0.485

---

Molecular target: PI3Kδ (Homo sapiens)
Construct: purchased Invitrogen (US)
Assay: In vitro enzyme activity (ADP-Glo) against PI3Kδ
Assay type: biochemical
Settings: Table 2; ATP 50 μM, PIP2:PS 50 μM
reported-endpoint: log10 of IC50 (log10 of the value in µM)
Scale: log10; quantity: IC50; unit before log: µM

Incoming: Which log10 of IC50 is listed for COc1ccc(-c2nn(C(C)c3nc4cccc(F)c4c(=O)n3C3CCC3)c3ncnc(N)c23)cc1 (centres unmarked) [Compound 19] ?
Outgoing: -1.42

Incoming: What value of measured log10 of IC50 is listed for CCC(c1nc2ccc(F)cc2c(=O)n1C1CC1)n1nc(-c2ccc(OC)c(F)c2)c2c(N)ncnc21 (centres unmarked) [Compound 23] ?
Outgoing: -2.02

Incoming: Which value of log10 of IC50 has been reported for COc1ccc(-c2nn(C(C)c3nc4cccc(F)c4c(=O)n3C3CCCC3)c3ncnc(N)c23)cc1F (centres unmarked) [Compound 5] in the records?
Outgoing: -1.73

Incoming: Which measured log10 of IC50 value corresponds to Cc1ccc(-c2nn(C(C)c3nc4ccc(F)cc4c(=O)n3C3CC3)c3ncnc(N)c23)cc1F (centres unmarked) [Compound 43] ?
Outgoing: -1.56

Incoming: Recorded log10 of IC50 for COc1ccc(-c2nn(C(C)c3nc4ccccc4c(=O)n3C3CCC3)c3ncnc(N)c23)cc1 (centres unmarked) [Compound 37] , please?
Outgoing: -3.00

Incoming: # log10 of IC50 lookup, item CC(c1nc2cccc(F)c2c(=O)n1C1CCCC1)n1nc(-c2cnc3ccccc3c2)c2c(N)ncnc21 (centres unmarked) [Compound 26]
Outgoing: -1.25

Incoming: Quick one: log10 of IC50 of COc1ccc(-c2nn(C(C)c3nc4cccc(F)c4c(=O)n3C3CCC3)c3ncnc(N)c23)cc1C (centres unmarked) [Compound 34] ?
Outgoing: -1.38

Incoming: Given CC[C@@H](c1nc2cccc(F)c2c(=O)n1C1CC1)n1nc(-c2ccc(OC)c(F)c2)c2c(N)ncnc21 [Compound 81] , state its recorded log10 of IC50.
Outgoing: -1.79
